- System: a variety of test species
- run_description: Post-emergence herbicidal activity (glasshouse, sprayed 8 days after sowing, evaluated after 13 days)
- Format: in vivo
- reported_conditions: Amaranthus retroflexus, 1000 g/ha, scale 0-5
- Experimental: Seeds of a variety of test species were sown in standard soil in pots. […] After 13 days, the test was evaluated (5=total damage to plant; 0=no damage to plant).
// Post-emergence herbicidal damage score, AMARE (Amaranthus retroflexus) lookup, one value per entry
Lab note: record the figure alone, no unit after it.

**Q:** Item: CC1=C(Cl)C(O)N(c2nn(C)c3c2CCC3(C)C)C1=O (stereo not drawn) [Compound B18] Test system: a variety of test species Read-out: Post-emergence herbicidal damage score, AMARE (Amaranthus retroflexus) Value: ?
**A:** 5

**Q:** // same read-out, input: CCC(C)(CC)c1cc(N2C(=O)C(C)=C(Cl)C2O)n[nH]1 (stereo not drawn) [Compound A7]
**A:** 5

**Q:** // same read-out, input: CCn1nc(N2C(=O)C(C)=C(Cl)C2O)c2c1C(C)(C)CC2 (stereo not drawn) [Compound C3]
**A:** 5

**Q:** // same read-out, input: CCC1CCn2nc(N3C(=O)C(C)=C(Cl)C3O)cc21 (mixture of isomers) [Compound G3]
**A:** 5

**Q:** // same read-out, input: CC1=C(Cl)C(O)N(c2cc(C(F)(F)C(F)(F)F)[nH]n2)C1=O (stereo not drawn) [Compound A6]
**A:** 3

====

- Tested on: a variety of test species
- run_description: Post-emergence herbicidal activity (glasshouse, sprayed 8 days after sowing, evaluated after 13 days)
- Assay type: in vivo
- reported_conditions: Abutilon theophrasti, 1000 g/ha, scale 0-5
// Post-emergence herbicidal damage score, ABUTH (Abutilon theophrasti) lookup, one value per entry
Lab note: record the figure alone, no unit after it.

Example entries begin here.
**Q:** Entry CC1=C(Br)C(O)N(c2nn(C)c(C(C)(C)C)c2C#N)C1=O (stereo not drawn) : reported Post-emergence herbicidal damage score, ABUTH (Abutilon theophrasti) = ?
**A:** 2

**Q:** // same read-out, input: CC(C)=Cc1cc(N2C(=O)C(C)=C(Cl)C2O)nn1C (stereo not drawn)
**A:** 4

**Q:** // same read-out, input: CC1=C(Cl)C(O)N(c2cc(C(F)(F)F)[nH]n2)C1=O (stereo not drawn)
**A:** 4

Could you now consider this next molecule?
**Q:** Entry CC1=C(Cl)C(O)N(c2cc(C)n(C)n2)C1=O (stereo not drawn) : reported Post-emergence herbicidal damage score, ABUTH (Abutilon theophrasti) = ?
**A:** 5

====

// Post-emergence herbicidal damage score, ABUTH (Abutilon theophrasti) lookup, one value per entry
- Test system: a variety of test species
- run_description: Post-emergence herbicidal activity (glasshouse, sprayed 8 days after sowing, evaluated after 13 days)
- Assay type: in vivo
- reported_conditions: Abutilon theophrasti, 1000 g/ha, scale 0-5
Lab note: record the figure alone, no unit after it.

**Q:** Entry CC1=C(Cl)C(O)N(c2nn(C)c3c2CCC3(C)C)C1=O (stereo not shown) : reported Post-emergence herbicidal damage score, ABUTH (Abutilon theophrasti) = ?
**A:** 5

Others:
**Q:** Entry COC1=C(Cl)C(OC(C)=O)N(c2cc(C(C)(C)C)n(C)n2)C1=O (stereo not shown) : reported Post-emergence herbicidal damage score, ABUTH (Abutilon theophrasti) = ?
**A:** 5

**Q:** // same read-out, input: CC1=C(Br)C(O)N(c2cc(C(C)(C)C)n(C)n2)C1=O (stereo not shown)
**A:** 5

**Q:** // same read-out, input: CC1=C(Cl)C(O)N(c2cc(C(C)C(F)(F)F)n(C)n2)C1=O (mixture of isomers)
**A:** 4

**Q:** // same read-out, input: COC1=C(C)C(=O)N(c2cc3n(n2)CCCC3(C)C)C1O (stereo not shown)
**A:** 5

**Q:** // same read-out, input: CC1=C(Cl)C(O)N(c2cc(CCC(C)C)n(C)n2)C1=O (stereo not shown)
**A:** 1

**Q:** // same read-out, input: CCC(C)(OC)c1cc(N2C(=O)C(C)=C(Cl)C2O)nn1C (mixture of isomers)
**A:** 5

**Q:** // same read-out, input: CC1=C(Cl)C(O)N(c2cc(C(F)(F)C(F)(F)F)[nH]n2)C1=O (stereo not shown)
**A:** 2

**Q:** // same read-out, input: CC1=C(Cl)C(O)N(c2nn(C)c(C(C)(C)C)c2C#N)C1=O (stereo not shown) [Compound D1]
**A:** 3

**Q:** // same read-out, input: CCCC1=C(C)C(O)N(c2nn(C)c(C(C)(C)C)c2C#N)C1=O (stereo not shown)
**A:** 4

**Q:** // same read-out, input: CC1=C(Br)C(O)N(c2cc3n(n2)CCCC3(C)C)C1=O (stereo not shown)
**A:** 5

**Q:** // same read-out, input: CC1=C(Cl)C(O)N(c2nn(C)c(C(C)(C)CCl)c2Cl)C1=O (stereo not shown)
**A:** 1

**Q:** // same read-out, input: CCOC(c1cc(N2C(=O)C(C)=C(Cl)C2O)nn1C)C(C)(C)C (mixture of isomers)
**A:** 0

**Q:** // same read-out, input: CSc1cc(N2C(=O)C(C)=C(Cl)C2O)nn1C (stereo not shown)
**A:** 4

**Q:** // same read-out, input: CC1=C(Cl)C(O)N(c2cc3n(n2)CCCC3(C)C)C1=O (stereo not shown)
**A:** 5

**Q:** // same read-out, input: CC1=C(Cl)C(O)N(c2cc([S+](C)[O-])n(C)n2)C1=O (stereo not shown)
**A:** 5

**Q:** // same read-out, input: CC1=C(Cl)C(O)N(c2nn(C)c3c2CCCCC3(C)C)C1=O (stereo not shown)
**A:** 4

**Q:** // same read-out, input: CC1=C(Cl)C(O)N(c2cc(C(C)(C)C#N)n(C)n2)C1=O (stereo not shown)
**A:** 4

**Q:** // same read-out, input: CCn1nc(N2C(=O)C(C)=C(Cl)C2O)cc1C(F)(F)F (stereo not shown)
**A:** 3

====

// Post-emergence herbicidal damage score, AMARE (Amaranthus retroflexus) lookup, one value per entry
- Tested on: a variety of test species
- run_description: Post-emergence herbicidal activity (glasshouse, sprayed 8 days after sowing, evaluated after 13 days)
- Assay type: in vivo
- reported_conditions: Amaranthus retroflexus, 1000 g/ha, scale 0-5
Lab note: record the figure alone, no unit after it.

Example entries begin here.
**Q:** Entry CCOC(c1cc(N2C(=O)C(C)=C(Cl)C2O)nn1C)C(C)(C)C (mixture of isomers) [Compound B16] : reported Post-emergence herbicidal damage score, AMARE (Amaranthus retroflexus) = ?
**A:** 0

**Q:** // same read-out, input: CC1=C(Br)C(O)N(c2nn(C)c(C(C)(C)C)c2C#N)C1=O (centres unmarked) [Compound H5]
**A:** 2

**Q:** // same read-out, input: CC1=C(Cl)C(O)N(c2cc(C(F)(F)F)n(CC(F)(F)F)n2)C1=O (centres unmarked) [Compound C5]
**A:** 1

**Q:** // same read-out, input: CC1=C(Cl)C(O)N(c2cc(C(F)(F)F)[nH]n2)C1=O (centres unmarked) [Compound A2]
**A:** 1

**Q:** // same read-out, input: CCC(C)(OC)c1cc(N2C(=O)C(C)=C(Cl)C2O)nn1C (mixture of isomers) [Compound B13]
**A:** 3

Others:
**Q:** Entry CC1=C(Br)C(O)N(c2cc3n(n2)CCCC3(C)C)C1=O (centres unmarked) [Compound H8] : reported Post-emergence herbicidal damage score, AMARE (Amaranthus retroflexus) = ?
**A:** 5

**Q:** // same read-out, input: CCCC1=C(Cl)C(O)N(c2cc(C(C)(C)C#N)n(C)n2)C1=O (centres unmarked) [Compound E2]
**A:** 5

**Q:** // same read-out, input: CC1=C(Cl)C(O)N(c2cc(Cc3ccccc3)n(C)n2)C1=O (centres unmarked) [Compound B32]
**A:** 3

====

// Post-emergence herbicidal damage score, ABUTH (Abutilon theophrasti) lookup, one value per entry
- Tested on: a variety of test species
- run_description: Post-emergence herbicidal activity (glasshouse, sprayed 8 days after sowing, evaluated after 13 days)
- Format: in vivo
- reported_conditions: Abutilon theophrasti, 1000 g/ha, scale 0-5

Example entries begin here.
**Q:** Item: CC1=C(Cl)C(O)N(c2cc(Cc3ccccc3)n(C)n2)C1=O (stereo not drawn) [Compound B32] Test system: a variety of test species Read-out: Post-emergence herbicidal damage score, ABUTH (Abutilon theophrasti) Value: ?
**A:** 5

**Q:** // same read-out, input: CC1=C(Cl)C(O)N(c2ccn(C)n2)C1=O (stereo not drawn) [Compound B31]
**A:** 0

Others:
**Q:** Item: CC1=C(Cl)C(O)N(c2cc(/C=C/C(C)(C)C)n(C)n2)C1=O (stereo not drawn) [Compound B11] Test system: a variety of test species Read-out: Post-emergence herbicidal damage score, ABUTH (Abutilon theophrasti) Value: ?
**A:** 0
